protocol_description: Antioxidant activity assessed as DPPH radical scavenging activity by UV-Visible spectrophotometry
Assay type: physicochemical
observation_type: log10(IC50) (log10 of the value in µM)
Answers are given as log10 of IC50 in µM.

Worked examples, 4 molecules total:
Summary for this molecule, "COc1cc(/C=N/N(C)C(=O)OCc2ccccc2)cc(OC)c1O.Cl" : log10(IC50) is 2.08

Given item "COc1cc(/C=N/Nc2nncc3ccccc23)cc(OC)c1OC.Cl" , the value recorded as its log10(IC50) is 1.60

log10(IC50) in this record for "O=C1CSC(=S)N1/N=C/c1ccccc1O" : 1.12

Per the records, this molecule ( COc1cc(/C=N/NC(=O)c2ccncc2)ccc1O [FTIVAZIDE] ) has log10(IC50) equal to 1.93

---
// log10(IC50) value for "COc1cc(/C=N/NC(=O)OCc2ccccc2)ccc1O" : 1.60

log10(IC50) measured on "COc1cc(/C=N/NC(=O)c2ccncc2)c(O)cc1O" = 1.18

In plain terms, "COc1cc(/C=N/N(C)C(=O)OCc2ccccc2)ccc1O.Cl" has a documented log10(IC50) of 1.42

###

Form field: Activity (one value per entry).
protocol_description: Cytoprotection in mouse CRL2181 cells assessed as reduction in UV-oxidized LDL-induced cytotoxicity by measuring cell viability at 1 uM after 24 hrs by MTT assay relative to untreated control
Format: functional
Give a bare numeral; the unit % is implied.

Reported Activity ( "COc1cc(/C=N/NC(=O)OCc2ccccc2)c(O)cc1O" ) = 43

Record "COc1cc(/C=N/NC(=O)c2ccncc2)cc(O)c1O" . Reported Activity: 41

// recorded Activity for "COc1cc(/C=N/N(C)c2nc3ccccc3s2)ccc1O" : 96

Next:
Lab note: measured Activity of "COc1cc(/C=N/N(C)C(=O)OCc2ccccc2)ccc1O.Cl" was 41

Activity reported for this compound "COc1cc(/C=N/NC(=O)OCc2ccccc2)cc(OC)c1O" : 45

Looking up "COc1cc(/C=N/N(C)C(=O)OCc2ccccc2)cc(OC)c1O.Cl" , I found its Activity recorded as 55

###

protocol_description: Antioxidant activity assessed as DPPH radical scavenging activity by UV-Visible spectrophotometry
Assay type: physicochemical
// pIC50 lookup, one value per entry
Give only the number. pIC50 is defined as minus log10 of concentration in molar units.

Please fill in: pIC50 reported for "Cl.Oc1ccc(/C=N/Nc2nncc3ccccc23)cc1O" = 5.17

pIC50 for "COc1cc(/C=N/NC(=O)OCc2ccccc2)cc(OC)c1O" is 4.22

Lab book: pIC50 of "COc1cc(/C=N/N2C(=O)CSC2=S)cc(OC)c1O" noted as 4.93

Briefly, pIC50 measured for "COc1cc(/C=N/N2C(=O)CSC2=S)ccc1O" : 4.89

Kindly note the recorded pIC50 for "COc1cc(/C=N/Nc2nc3ccccc3s2)cc(OC)c1OC" , which is 4.37

***
The value of pIC50 measured for the molecule "COc1cc(/C=N/Nc2nc3ccccc3s2)cc(O)c1O" turned out to be 5.17

Entry under test: "COc1cc(/C=N/NC(=O)OCc2ccccc2)c(O)cc1O" . Its pIC50 was 4.87

Sample "COc1cc(/C=N/NC(=O)c2ccncc2)cc(O)c1O" ; pIC50 observed: 4.74

// pIC50 value for "O=C(N/N=C/c1ccc(O)c(O)c1)c1ccncc1" : 5.21

// field: pIC50; key: "COc1cc(/C=N/NC(=O)c2ccncc2)cc(OC)c1O" ; value = 4.77

Consider "COc1cc(/C=N/Nc2nncc3ccccc23)cc(OC)c1O" . Its measured pIC50 is 4.55

Recorded pIC50 (molecule Cc1c(C)c2c(c(C)c1O)CCC(C)(C(=O)O)O2 (stereo not drawn) ): 4.70
